Assay: In vivo screening in E. coli #1363/#1730 with lactose as acceptor, sialyllactose identified by TLC
Format: cell-based, Escherichia coli BL21(DE3)
Conditions: 1.5 mM lactose, 72 to 96 hours, qualitative via TLC
Procedure: Escherichia coli BL21(DE3) #1363 and #1730 harbouring plasmids encoding for 100 sialyltransferases were grown at 30° C. in 100 ml shake flasks filled with 20 ml of mineral salts medium (Samain et al., J. Biotech. 1999, 72:33-47) supplemented with 2% (wt/vol) glucose, ampicillin 100 μg ml^−1, kanamycin 15 μg ml^−1 and zeocin 40 μg ml^−1. When the cultures reached an OD600 of 0.1 to 0.3, gene expression was induced by addition of 0.3 mM IPTG. […]
QUANTITY_MEASURED: Production of sialyllactose in-vivo

{"MOLECULE": "SiaT73: sialyltransferase of Haemophilus somnus 2336, acc. ACA31170, SEQ ID NO: 20 (protein, listed as Haemophilus somnus) MKYNIKIKAIVIVSSLRMLLIFLMLNKYHLDEVLFVFNEGFELHKKYKIKHYVAIKKKITKFWRLYYKLYFYRFKIDRIPVYGADHLGWTDYFLKYFDFYLIEDGIANFSPKRYEINLTRNIPVFGFHKTVKKIYLTSLENVPSDIRHKVELISLEHLWKTRTAQEQHNILDFFAFNLDSLISLKMKKYILFTQCLSEDRVISEQEKIAIYQHIIKNYDERLLVIKPHPRETTDYQKYFENVFVYQDVVPSELFELLDVNFERVITLFSTAVFKYDRNIVDFYGTRIHDKIYQWFGDIKF", "Production of sialyllactose in-vivo": "3′-SL"}

Let us examine a further case.
# query: Production of sialyllactose in-vivo of entry SiaT14: sialyltransferase of Haemophilus-somnus-2336, acc. ACA31578, SEQ ID NO: 26 (protein, listed as Haemophilus somnus) MFREDNMNLIICCTPLQVIIAEKIIERYPEQKFYGVMLESFYNDKFDFYENKLKHLCHEFFCIKIARFKLERYKNLLSLLKIKNKTFDRVFLANIEKRYIHIILSNIFFKELYTFDDGTANIAPNSHLYQEYDHSLKKRITDILLPNHYNSNKVKNISKLHYSIYRCKNNIIDNIEYMPLFNLEKKYTAQDKSISILLGQPIFYDEEKNIRLIKEVIAKFKIDYYFPHPREDYYIDNVSYIKTPLIFEEFYAERSIENSIKIYTFFSSAVLNIVTKENIDRIYALKPKLTEKAYLDCYDILKDFGIKVIDI
3′-SL
